# measurement-protocol: clinical
# condition-context: human, plasma, intravenous, t1/2 Mean, Dose Level 4, LD 1.00/CD 2.00 μg/kg/hr; full evaluable population
observation-type: half-life (h)
// units = h; emit number, no label

Which half-life value belongs to Cc1cccc([C@H](C)c2cnc[nH]2)c1C [dexmedetomidine] ? 2.14

* * *

# measurement-protocol: clinical
# condition-context: human, plasma, intravenous, 2 ug/kg, CL, Group I (≥2 to <6 y); Dose Level 4 (LD 1.00/CD 2.00 μg/kg/hr); geometric mean; full evaluable population
observation-type: clearance (mL/min)
Just the number in mL/min, nothing appended.

Which value of clearance has been reported for Cc1cccc([C@H](C)c2cnc[nH]2)c1C [dexmedetomidine] in the records? 199
